Parameter Dmax: see the listing below.
Biological target: Receptor-interacting protein kinase 1 (RIPK1) (Homo sapiens)
Construct: with VHL
Sequence (Q13546 whole entry): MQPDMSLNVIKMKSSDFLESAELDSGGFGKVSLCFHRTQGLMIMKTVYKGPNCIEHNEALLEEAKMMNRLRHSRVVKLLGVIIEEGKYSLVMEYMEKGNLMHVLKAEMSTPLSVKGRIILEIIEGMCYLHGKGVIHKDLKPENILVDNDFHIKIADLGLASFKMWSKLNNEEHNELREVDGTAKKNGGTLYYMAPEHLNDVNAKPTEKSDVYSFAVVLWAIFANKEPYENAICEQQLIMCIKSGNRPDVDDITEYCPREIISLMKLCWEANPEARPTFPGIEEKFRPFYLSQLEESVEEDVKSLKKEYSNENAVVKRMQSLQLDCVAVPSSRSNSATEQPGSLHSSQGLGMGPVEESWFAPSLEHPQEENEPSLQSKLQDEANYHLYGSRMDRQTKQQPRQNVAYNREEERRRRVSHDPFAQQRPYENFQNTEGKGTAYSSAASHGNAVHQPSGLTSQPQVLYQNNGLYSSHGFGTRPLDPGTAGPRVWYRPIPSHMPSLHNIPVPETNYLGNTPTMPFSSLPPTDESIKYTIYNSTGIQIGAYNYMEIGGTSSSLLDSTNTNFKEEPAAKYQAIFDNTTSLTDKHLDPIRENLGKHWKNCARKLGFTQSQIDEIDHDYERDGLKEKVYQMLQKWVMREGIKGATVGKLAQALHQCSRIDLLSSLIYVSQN
Sequence (P40337 whole entry partner): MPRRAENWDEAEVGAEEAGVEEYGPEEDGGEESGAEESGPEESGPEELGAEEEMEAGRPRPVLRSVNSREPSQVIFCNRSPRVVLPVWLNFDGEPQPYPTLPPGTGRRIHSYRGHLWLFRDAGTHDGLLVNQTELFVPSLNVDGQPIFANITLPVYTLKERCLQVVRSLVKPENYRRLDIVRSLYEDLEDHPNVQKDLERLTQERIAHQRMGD
Test: cell-based
Design: HiBiT luminescence of CRISPR-tagged endogenous RIPK1 (C-terminal HiBiT) after PROTAC treatment; degradation DC50 and Dmax
Settings: HEK293T-RIPK1-HiBiT cells; read-out: Dmax (HEK293T-RIPK1-HiBiT cell line)
observation_type: Dmax

- line_notation: "Cc1ncsc1-c1ccc([C@H](C)NC(=O)[C@@H]2C[C@@H](O)CN2C(=O)[C@@H](NC(=O)CCCCOc2ccc(NC(=O)Cn3cc(-c4cnc(N)c5c(-c6ccc7c(c6)CCN7C(=O)Cc6ccccc6)csc45)cn3)cc2)C(C)(C)C)cc1"
  observation_type: "Dmax"
  observed: "93%"
- line_notation: "Cc1ncsc1-c1ccc([C@H](C)NC(=O)[C@@H]2C[C@@H](O)CN2C(=O)[C@@H](NC(=O)CN2CCN(C3CCN(C(=O)Cn4cc(-c5cnc(N)c6c(-c7ccc8c(c7)CCN8C(=O)Cc7ccccc7)csc56)cn4)CC3)CC2)C(C)(C)C)cc1"
  observation_type: "Dmax"
  observed: "91%"
- line_notation: "Cc1ncsc1-c1ccc([C@H](C)NC(=O)[C@@H]2C[C@@H](O)CN2C(=O)[C@@H](NC(=O)CCCCCNC(=O)Cn2cc(-c3cnc(N)c4c(-c5ccc6c(c5)CCN6C(=O)Cc5ccccc5)csc34)cn2)C(C)(C)C)cc1"
  observation_type: "Dmax"
  observed: "93%"
- line_notation: "Cc1ncsc1-c1ccc([C@H](C)NC(=O)[C@@H]2C[C@@H](O)CN2C(=O)[C@@H](NC(=O)CN2CCN(CC3CCN(C(=O)Cn4cc(-c5cnc(N)c6c(-c7ccc8c(c7)CCN8C(=O)Cc7ccccc7)csc56)cn4)CC3)CC2)C(C)(C)C)cc1"
  observation_type: "Dmax"
  observed: "93%"
